- Test system: MS2 coat protein
- Method: apparent Kd, MS2 coat protein; higher = weaker binding; RNA-MaP array
- Experimental setup: ligand present: theophylline; designed as: ON switch for theophylline
Binary call on apparent Kd: YES from 0.06 µM upward, NO beneath that.

>>> df
                             entry_sequence  class
0  AACCAUCUCGGCGAUACCAGUGCCUACGAGUACAUGAGGAUCACCCAUGUAGGUGACCGACACCCUUGGCAGCGCGAUUGAGUCA    YES
1  UUAAUCGUGCAUGAUACCAGUAUCCGUAGAUACAUGAGGAUCACCCAUGUCUGGUUGGAAUACCCUUGGCAGCAUGGGUUGAGGA    YES
2  GGACAACAUGAGGAUCACCCAUGUCCUGAUACCAGUCAGCGCAGUGACCCUUGGCAGCAGACGGAUACGAAAUAACUGAGAGAUA     NO
3  GUCUCAGACCGAGAUACCAGCUGGGUUUCCCACAUGAGGAUCACCCAUGUAUUCAGAUUAAGCCCUUGGCAGCUCAUCUAGGUCC     NO

###

- Test system: MS2 coat protein
- Method: apparent Kd, MS2 coat protein; higher = weaker binding; RNA-MaP array; tryptophan 2.4 mM where present
- Experimental setup: designed as: ON switch for tryptophan; no ligand
Property measured: apparent Kd (µM)

In [3]: df
Out[3]:
                             entry_sequence  unit_annotation  observed
0  AUGGUCGACGAUCUGCGAAAAGCAGAUCGACGAGGACCGGUACGGCCGCCACUCGUGUUUAUUUAACAUGAGGAUCACCCAUGUA               µM    0.0802
1  UUUAUUAUUGACUCGUUAUUGUUUUUGGAUCGAGGACCGGUACGGCCGCCACUCGUGAUAUACAUGAGGAUCACCCAUGUUAGCA               µM    0.0149
2  CACGCACGAUCGGCCGCCACUCAUGUAGCUUACAUGAGGAUCACCCAUGUAUUUUCUUUCUUUUAGAGGACCGGGAUCGUGCGUG               µM    0.0249
3  CUACAUUUGUAGAAACCGGUCAACAAUAAUCGAGGACCGGUACGGCCGCCACUCGAUGUGAAAUACACAUGAGGAUCACCCAUGU               µM    0.0159

###

- Tested on: MS2 coat protein
- Method: apparent Kd, MS2 coat protein; higher = weaker binding; RNA-MaP array; FMN 200 µM where present
- Experimental setup: ligand present: flavin mononucleotide; designed as: ON switch for flavin mononucleotide
Property measured: apparent Kd (nM)

In [3]: df
Out[3]:
                              entry_sequence  property_measured  unit_annotation  observed
 0  AUUUAUGGCCAGAAGGACAUGAGGAUCACCCAUGUAGGAUAUGGACGAUUUUGCUCGGCGGUUCGUUUAGGAAUCACCGGUGGU        apparent Kd               nM      6.38
 1  UGAGUAGCGAAACAAUGCACAUGAGGAUCACCCAUGUCUACACAGGAUAUGCGACGCUCCAGUUAGCAGAAGGGUGAACUCAAA        apparent Kd               nM      82.3
 2  GUUAUUAUUAGUUCAUACUAUAAGAUAGAAGGUGAUUUAUUGACAUGAGGAUCACCCAUGUAAUUCAAGGAUAUGUAGAUACUC        apparent Kd               nM       248
 3  CUGCCUACAUGAGGAUCACCCAUGUCUGGCGAAAGAGUUCAGUAGGAUAUGAGAUUGGGUAAUCAUCAGAAGGGCUGGCAAAAG        apparent Kd               nM      14.2
 4  GCACAUGGCAUAGGAUAUAGAACUUUACUUUAUAUAGGUAGUUACACUUAACUAGAAGGAUGUUACAUGAGGAUCACCCAUGUU        apparent Kd               nM        20
 5  GUGCGAGCCACAGGAUAUCUACAAAUUUACUGUAGAGAAGGGUGACCUCGUGCACCACAUGAGGAUCACCCAUGUAACUAGGCG        apparent Kd               nM        53
 6  GCGAUUUUGUAAGGAUAUACACGAGUUUUAAGUGUAGAAGGUACUUACAUGAGGAUCACCCAUGUAUUAAUGUUUAAUAGUCGC        apparent Kd               nM      6.84
 7  GCGAUUUUGUAAGGAUAUACUCUGUGAUGAAGAGUAGAAGGUACUUACAUGAGGAUCACCCAUGUUUAACGAGAUACUAAUCGU        apparent Kd               nM      21.2
 8  UGGUACAUCAUAGGAUAUCGUGUGUAAACAUGAGGAUCACCCAUGUCAUACGAGAGUAUGUAGAUCGAGAAGGAUGAUGUACCU        apparent Kd               nM      16.1
 9  AUUAUACAUGAGGAUCACCCAUGUCAACAAAGUCGAGGAUAUGGGCAAAUAAAAUAAGAACCAGAAGGCGAAUAAU        apparent Kd               nM        61
10  GUGGCUGUUAGGCUUGCGUCGGCGACAGAAGGCCAACAUGAGGAUCACCCAUGUACAAAGACCAUGGAGGAUAUGUUGCCAAUG        apparent Kd               nM      7.54
11  GCCAUCGCAUGAGGAUAUGCUCGGGUUUCCCGAGCAGAAGGCAUGUCAUAAGACAUGAGGAUCACCCAUGUAGUUAAGAUGGCA        apparent Kd               nM      35.9
12  CGUUCACAUGAGGAUCACCCAUGUCAGAUUUGGUCAGGAUAUGGUCUGCUUCCGCUAUUGCCAGAAGGGACUUUUG        apparent Kd               nM      22.7
13  ACAUGAGGAUCACCCAUGUCUUUAUCCGAUUCUUCAUUUACGUAGGAUAUCGUCUAUACUAUCAUCGAGAAGGACGUUCUUUAA        apparent Kd               nM      15.9

###

- Tested on: MS2 coat protein
- Method: apparent Kd, MS2 coat protein; higher = weaker binding; RNA-MaP array; FMN 200 µM where present
- Experimental setup: ligand present: flavin mononucleotide; designed as: OFF switch for flavin mononucleotide
Binary call on apparent Kd: 1 (yes) from 60 nM upward, 0 (no) beneath that.

>>> print(df.to_string())
                             entry_sequence   measured_target    class
0  AAAAGGCAAGGAUAUACAUGAGGAUCACCCAUGUAAUUCCCGUCGGGAUGACCGAUAUGUAGAAGGUGCAUUAA  MS2 coat protein   0 (no)
1  GUCAUGUCAGGAUAUGCUUAUGAUGGGUGCUCAGACAUGAUGCAGAAGGGACAUGAGGAUCACCCAUGUACUGU  MS2 coat protein  1 (yes)
2  UGAUUACGAGGAUAUACAUGAGGAUCACCCAUGUAGUCAGGGCCCAUACUCCGAGCAUGUAGAAGGCGUUGUCU  MS2 coat protein   0 (no)
3  UGAUCGAGAGAUCUUAGAUUCUGGUAGGAUAUACAUUAUGAAAACUUUACAUGAGGAUCACCCAUGUAGAAGGACUAGAGUCUA  MS2 coat protein   0 (no)
4  CUUCUGUGAGGAUAUGUUAGCUCCCAGCAAGUCGCUGAGAGACAGAAGGCACAUGAGGAUCACCCAUGUGGGCG  MS2 coat protein  1 (yes)
5  GUCAGCUCGUGAGGAUAUACAACACUGCUUCGGCAGUGUAUUAAGAUCACAUGAGGAUCACCCAUGUAGAAGGCACGAGCUGGU  MS2 coat protein  1 (yes)
6  UCAUCAACGGGCGGGUCGGUUGGACAUGAGGAUCACCCAUGUAGAAGGACCGGUGGGCUCCGGCGGUAGGAUAUACAUUUGGUG  MS2 coat protein   0 (no)

###

Catalogue of apparent Kd readings, one per entry.
- Tested on: MS2 coat protein
- Method: apparent Kd, MS2 coat protein; higher = weaker binding; RNA-MaP array; tryptophan 2.4 mM where present
- Experimental setup: ligand present: tryptophan; designed as: ON switch for tryptophan
Property measured: apparent Kd

>>> print(df.to_string())
                              entry_sequence  observed
 0  CGAAUAUAGACGGCCGCCACUCUACAAACAUGAGGAUCACCCAUGUUCACAUAGUGGAAACACAUGAGGACCGGGUCAUAGGCAU     14 nM
 1  AAUACCGGAUCGGCCGCCACUGGUUGGCCCUGUGUACAUGAGGAUCACCCAUGUCCAUCCCAAGCCAGGACCGGGAUCUUUGUGU   10.1 nM
 2  AGUCACUCGAGGUGAUCUGACGAGUGGCAACGAGGACCGGUACGGCCGCCACUCGAAUAAACAUGAGGAUCACCCAUGUACAAAU    196 nM
 3  UACAUGAGGAUCACCCAUGUAUUGCCGGUACGAGGACCGGUACGGCCGCCACUCGGAGCAUGAGGAUCACCCAUGUGCUGCUAUG   51.8 nM
 4  AUGGUCGACGAUCUGCGAAAAGCAGAUCGACGAGGACCGGUACGGCCGCCACUCGUGUUUAUUUAACAUGAGGAUCACCCAUGUA   22.3 nM
 5  UUUAUUAUUGACUCGUUAUUGUUUUUGGAUCGAGGACCGGUACGGCCGCCACUCGUGAUAUACAUGAGGAUCACCCAUGUUAGCA   12.8 nM
 6  CGAUAUAUAGCGGCCGCCACUUACUCAUGAGGUAACAACAUGAGGAUCACCCAUGUUUGAGGAUCAAGGACCGGGCUAUGUAUCG     18 nM
 7  ACAUUGCGCUCGGCCGCCACUGCCUUAUGAUUAUAAGGAUUAAUGAACAUGAGGAUCACCCAUGUCAGGACCGGGAGCGAACCAU   13.4 nM
 8  AGCCACUCGAGUGAUCCUCACGAGUGGCAACGAGGACCGGUACGGCCGCCACUCGAAUAACAUGAGGAUCACCCAUGUUUAUAAU   96.2 nM
 9  AAUAAUAGGUGAUCCUGACGAGUGGCAUAACGAGGACCGGUACGGCCGCCACUCGAACAUGAGGAUCACCCAUGUAGCCACUCGA    393 nM
10  AACAUGAGGAUCACCCAUGUUCUCGUGUACCGAGGACCGGUACGGCCGCCACUCGGUUCUCGCGAGGAUGGUCAAAGACUAUCCA     16 nM
11  AGCCGGAUUACGGCCGCCACUGUAGACGUGACGAAAGUCGCGUCAACAUGAGGAUCACCCAUGUACAGGACCGGGUGGUCAGGCG   41.2 nM
12  AUCUUUGGCGAUCUGGGAAAACCAGAUCGACGAGGACCGGUACGGCCGCCACUCGUGUAUAAUAUACAUGAGGAUCACCCAUGUA   30.5 nM
13  CAUAUAUAAGCGGCCGCCACUUACUCAUGAGGUAACAACAUGAGGAUCACCCAUGUUUGAGGAUCAAGGACCGGGCUUAUAUAUG   18.3 nM
14  UGUCAUGGAAACAUGACUGGUUCUACCGGUCGAGGACCGGUACGGCCGCCACUCGAUUGGUGGCACAUGAGGAUCACCCAUGUUA     30 nM
15  GCAUCCUAGUCGGCCGCCACUGCACGAUCAGUGGCAGAUCGUCAACAUGAGGAUCACCCAUGUAGCAGGACCGGGACUAGGAUGC   24.6 nM
16  CUAUAUAUAGCGGCCGCCACUUACUCAUGAGGUAACAACAUGAGGAUCACCCAUGUUUGAGGAUCAAGGACCGGGCUAUAUAUAG   16.7 nM
17  GGUAUAUAGGCGGCCGCCACUGAUUUUCAUAUAUAUAUAACAUGAGGAUCACCCAUGUAGAUAUACAGGACCGGGCCUAUAUAUU   12.8 nM
